- Test system: rabbit skeletal myofibrils (fast skeletal myofibrils)
- experiment description: Activation of fast skeletal myofibrils (PUMA assay, PK/LDH-coupled ATPase at pCa25)
- Format: biochemical
- applied conditions: AC1.4 determined according to the procedure of Example 39; reported as class symbols
measurement type: Mean AC1.4

Worked set:
Problem: Using the record for NC(=O)c1cccc(-c2ccc(NCC3CCc4ccccc43)nn2)c1 (stereo not shown) , report its Mean AC1.4.
Result: B (B=1-10 uM)

Problem: Using the record for NC(=O)c1cccc(-c2ccc(NCCc3ccc(F)cc3F)nn2)c1 , report its Mean AC1.4.
Result: D (D=>20 uM)

Problem: Using the record for NC(=O)c1cccc(C2(CNc3ccc(-c4ccc5[nH]ncc5c4)nn3)CCC2)n1 , report its Mean AC1.4.
Result: B (B=1-10 uM)

Problem: Using the record for COC(=O)Nc1n[nH]c2ccc(-c3ccc(NCC(C)(C)c4ccc(F)cc4)nn3)cc12 , report its Mean AC1.4.
Result: A (A=<1 uM)

Problem: Using the record for NC(=O)c1cccc(-c2ccc(NCC3(c4ccccc4Cl)CC3)nn2)c1 , report its Mean AC1.4.
Result: A (A=<1 uM)

Next:
Problem: Using the record for CC(C)(CNc1ccc(-c2ccc3[nH]nc(C(O)CO)c3c2)nn1)c1ccc(F)cc1 (stereo not shown) , report its Mean AC1.4.
Result: B (B=1-10 uM)

Problem: Using the record for CC(C)(C)OC(=O)N(CC(C)(C)c1ccc(F)cc1)c1ccc(-c2cc(C(N)=O)ccc2F)nn1 , report its Mean AC1.4.
Result: D (D=>20 uM)

Problem: Using the record for COc1cccc(C(C)(C)CNc2ccc(-c3ccc4[nH]nc(N)c4c3)nn2)c1 , report its Mean AC1.4.
Result: A (A=<1 uM)

Problem: Using the record for CC(=O)Nc1cccc(-c2ccc(NCC3(c4ncccc4F)CCC3)nn2)c1 , report its Mean AC1.4.
Result: B (B=1-10 uM)

Problem: Using the record for Nc1n[nH]c2ccc(-c3ccc(NCC4(c5ncccc5F)CCC4)nn3)cc12 , report its Mean AC1.4.
Result: A (A=<1 uM)
